Measured normalized growth accompanies every entry in the list below.
- Procedure summary: chemical genetic growth profiling, strain panel (AID 1159580);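 also: tested at 20 µM; growth read once vehicle control cultures reached saturation at 30 °C; 1 = growth at the plate median or of vehicle wells; lower values mean less growth of the strain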
- Settings: S. cerevisiae deletion strains, growth OD, locus YDL132W, strain cdc53, stronger effect = lower value
Out of some 5,500 compounds screened, about 2,000 (36%) were called active. Not shown: some 18% with an inconclusive outcome. Some of the results follow.

Record smiles	normalized growth
Cc1nn(C)c(C(=O)Sc2ccc(OC(F)(F)F)cc2)c1[N+](=O)[O-]	0.952
O=C(ON=C1CCCCC1)c1ccc([N+](=O)[O-])cc1	0.944
CCCN(CCC)C(=S)NC(=O)c1cccc([N+](=O)[O-])c1	0.973
N#C/C(=N/Nc1ccc(F)cc1)C(=O)c1ccccc1	0.906
COc1cc(Cl)ccc1N/N=C(/C#N)C(N)=O	0.102
O=[N+]([O-])c1ccc(-c2noc(-c3ccno3)n2)o1	0.106
N#C/C(=N/Nc1ccc(F)cc1)S(=O)(=O)c1ccc(Cl)cc1	0.966
C/C(Cc1nnn(-c2cc(C)on2)n1)=N/OC(=O)Nc1ccc(Cl)cc1	0.975
O=C(Oc1cccc2[nH]ccc12)c1ccc(C(F)(F)F)cc1	0.973
CC1(C)CC(=O)C=C(Sc2nc3ccccc3o2)C1	0.947
CC(=O)c1ccc(Cl)c(NS(=O)(=O)c2cc(Cl)c(Cl)cc2Cl)c1	0.9
